Item-by-item account of z-score
# assay details: Components of the Cytosolic LPS Sensing Pathway: Gene Identification via Genome-wide siRNA Screen
# condition details: RAW264.7 macrophages, IL-1a HTRF, actives lie on both sides, screened at 100 nM (by protocol), cells primed 5 h with Pam3CSK4 first
Hit rate of the full screen: of about 53,000 sequences, about 3,700 (7%) were called active. The sample as a whole holds a higher share of actives than the screen did.
Answer field: number only, no words.

Field: example entries. Status: answers known.
query sequence	endpoint name	measured
GGUGUGGCUGUUCUGAUGATT against Olfr771	z-score	0.322
GCCACCAAGUACUUUGGUUTT against Vmn1r76	z-score	1.34

Please turn your attention to the following entry.
Query string: Item GGCAAACAACUGAAUAAGGTT against Pbsn has what recorded z-score?
Result string: -0.611

---

Reported z-score values for a set of sequences
# assay details: Components of the Cytosolic LPS Sensing Pathway: Gene Identification via Genome-wide siRNA Screen
# condition details: RAW264.7 macrophages, IL-1a HTRF, actives lie on both sides, screened at 100 nM (by protocol), cells primed 5 h with Pam3CSK4 first
The campaign covered roughly 53,000 sequences. About 3,700 (7%) were called active. Many of the other results were omitted from the sample, so actives are more common in it than they were.
Format: numeric value only, no unit, no commentary.

query sequence	endpoint name	measured
GGCCUGGAUUCCUUAACAATT against Lgi1	z-score	-3.23

Query string: Value lookup for z-score; key = GGAAGAAGGAACAUGAUCUTT against Mrpl52
Result string: -0.928

Query string: Request the reported z-score associated with CCUGAUGUUAUUCCUUUUATT against Klhl20
Result string: -0.524

Query string: Given the entry GUCAGAACCAUAGCCAUGATT against Vmn1r202 , report its measured z-score.
Result string: -0.623

Query string: Reported z-score, sequence GGGUGCGGAAAUUCAUUAATT against Mpv17l2 : ____
Result string: 0.803

Query string: Tell me the measured z-score of GGAACAUUUCUGGAUUGUUTT against Muc1 , please.
Result string: -0.503

Query string: Request the reported z-score associated with GGAUCCUGUUAAGAUUAUCTT against Phykpl
Result string: -0.0411

Query string: Look at this sequence and give its reported z-score. GCCUCAAAAUGGCGGAACUTT against Casp8
Result string: -0.249

Query string: Quick one: z-score for GCACAUGUCUGUGAUUCAATT against St8sia1 ?
Result string: -0.166

Query string: Dear colleague, I am looking for the recorded z-score of the following sequence: GCCGUUGCCUUUCAAGGGATT against Inhbe
Result string: -0.112

---

# assay details: Components of the Cytosolic LPS Sensing Pathway: Gene Identification via Genome-wide siRNA Screen
# condition details: RAW264.7 macrophages, IL-1a HTRF, actives lie on both sides, screened at 100 nM (by protocol), cells primed 5 h with Pam3CSK4 first
The whole screen tested about 53,000 sequences, of which about 3,700 (7%) were called active.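 The calls were made as follows: active = gene knockdowns whose robust z-score for IL-1 alpha signal is at least 2 or at most -2, so actives lie on both sides; inactive = the rest.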 The sample as a whole holds a higher share of actives than the screen did.
Please answer using one outcome listed in active, inactive

The examples below pair each entry with its known result.
query sequence	answer label
GGAUAUGAAACAAUAACAGTT against Arid5b	inactive
GGGUGUCACAAAAUAAAAUTT against Sigirr	inactive
GGAAACCGUUUUUUUUUUCTT against Appbp2	active
CCUUUAAAGUAAGCAUGUGTT against Slc27a4	inactive
CCAGCUAUACGAAGACUUCTT against Hdhd3	inactive

Query string: Per the records of this test, what outcome belongs to GGAAUGUCGAAUUGAUUGUTT against Klrb1b ?
Result string: inactive

Query string: Lab log entry: GGAUUCAUCAUCUACCCGGTT against C1ql4 — outcome as called in the assay?
Result string: inactive

Query string: What call does the record list for GGAUUCCAAUUUUAUUCCATT against Brca1 ?
Result string: inactive

---

# assay details: Components of the Cytosolic LPS Sensing Pathway: Gene Identification via Genome-wide siRNA Screen;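 further: robust z of the log signal after scaling to non-targeting control siRNA wells of the plate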
# condition details: RAW264.7 macrophages, IL-1a HTRF, actives lie on both sides, screened at 100 nM (by protocol), cells primed 5 h with Pam3CSK4 first
In all, about 53,000 sequences went through this assay and about 3,700 (7%) were called active. This excerpt belongs to a sample that is enriched for actives.
endpoint name: z-score

Consider the worked cases shown below.
query sequence	z-score
GGACCUAAACUGUCAGGAGTT against Eif3g	0.15 (inactive)
GGUGCAAAGCUUGAAAAUGTT against Gpr150	-0.324 (inactive)
GCGAAUCUCCUCCUAGUGATT against Arhgap28	-0.0218 (inactive)
GCUUUGAGAGGUGUUGAUATT against Gm6116	-0.864 (inactive)
GGAAGAUCAUAAUGGACAGTT against Pcsk9	6.01 (active)

Query string: Requested read-out: z-score. Entry: CGCAUGCCUGUAAAAUAAATT against 2310057M21Rik
Result string: -1.37 (inactive)

Query string: So what's the measured z-score for this one? GCAUUGUGAGACUAACGUGTT against Dusp7
Result string: 1.08 (inactive)

Query string: For the sequence shown here, GGAGCAGCAGAAGAUCCUUTT against Olfr47 , give the reported z-score.
Result string: 2.52 (active)

---

# assay details: Components of the Cytosolic LPS Sensing Pathway: Gene Identification via Genome-wide siRNA Screen;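 further: robust z of the log signal after scaling to non-targeting control siRNA wells of the plate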
# condition details: RAW264.7 macrophages, IL-1a HTRF, actives lie on both sides, screened at 100 nM (by protocol), cells primed 5 h with Pam3CSK4 first
Screen size: about 53,000 sequences; about 3,700 (7%) were called active. This excerpt belongs to a sample that is enriched for actives.
Recorded z-score by entry
Just the number, please, no unit after it.

query sequence	measured
GGCAAUACAAACAAGUUCUTT against Klhdc2	1.05
GGUAAUCUCCAAAAAACCATT against Lilra6	-0.863
GGCAGAAGCCUAAAACGGUTT against Nudt2	0.00394
GGAGUUUAAGAAGACGCACTT against Slc26a3	1.62
CGAAGAAUGACGAUGAUAUTT against Ppp4r3a	-2.41
GGUUGUUGUGACCUUCCUGTT against Bod1	-2.65
GGUCAAGAGUGCCCUAAAATT against Olfr398	-1.63
GGAAGUAUUUGAUCAUGGATT against Smarca5	-0.465

Now look at this one.
Query string: I have this sequence here, GGGAGAGUGUUUGUUCAUUTT against Dusp1 , and I need its recorded z-score.
Result string: -0.082

---

# assay details: Components of the Cytosolic LPS Sensing Pathway: Gene Identification via Genome-wide siRNA Screen;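 further: robust z of the log signal after scaling to non-targeting control siRNA wells of the plate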
# condition details: RAW264.7 macrophages, IL-1a HTRF, actives lie on both sides, screened at 100 nM (by protocol), cells primed 5 h with Pam3CSK4 first
About 3,700 (7%) of roughly 53,000 sequences were called active. The entries come from a sample that favours actives as a whole.
z-score reference
Output: the number by itself.

Query string: So what does the record say about z-score for UGGAUACUCUAUCUCAAGCTT against Serpinb9g ?
Result string: -0.479

Query string: Item under review: GGGACUAUGACAAAACAGCTT against Atad2 . Reported z-score?
Result string: 0.0122

Query string: Please report the recorded z-score for GGAUAUACAUGGUCUGUUUTT against Naip5 .
Result string: 0.318

Query string: What does the record list as z-score for CCCAGAGCAUUCCUAUUACTT against Klrg2 ?
Result string: -2.84

Query string: Value lookup for z-score; key = GGCAGCUUUGGAACAACUATT against Zc3h14
Result string: -0.477

Query string: Dear colleague, I am looking for the recorded z-score of the following sequence: GCCUCUUAAUGCUUUUGUATT against Sfxn1
Result string: -0.272

Query string: I would be grateful if you could share the reported z-score for GCAAUGGACUGACAUGUCATT against Csdc2 .
Result string: -0.339

Query string: Find the recorded z-score belonging to GGCUCAAGGUUUUCUCUACTT against Olfr710 and report it.
Result string: -0.0341

Query string: Looking for the measured z-score of CCAGAUGUCGGCAGAUAACTT against Pold4 , can you help?
Result string: 0.446

Query string: Consider the sequence GCCAGGAUAUGGAUAUGCATT against 1520401A03Rik and give its measured z-score.
Result string: -2.06

Query string: Record request: z-score value, item GAGGGCCAUCUCUGACAUGTT against Avp
Result string: 0.369

---

# assay details: Components of the Cytosolic LPS Sensing Pathway: Gene Identification via Genome-wide siRNA Screen;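 further: robust z of the log signal after scaling to non-targeting control siRNA wells of the plate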
# condition details: RAW264.7 macrophages, IL-1a HTRF, actives lie on both sides, screened at 100 nM (by protocol), cells primed 5 h with Pam3CSK4 first
Hit rate of the full screen: of about 53,000 sequences, about 3,700 (7%) were called active. Only a selection was taken, and actives are over-represented in it overall.
Examples of sequences with documented z-score follow.
Provide a numeric answer; units are not to be included.

Answered cases to consult:
query sequence	z-score
GGAUAACUACAGGAAUAAGTT against Spam1	-0.701
GGGUGUUUGGAGAUUGUGUTT against Heatr3	-2.93

Query string: Field request: z-score | item: GGGAUGUUUAGGUCACCUUTT against 4933434M16Rik
Result string: -2.35

Query string: May I ask what z-score has been recorded for CCCGCUAUUUGGUGCUAACTT against Amh ?
Result string: 3.21

Query string: // z-score lookup, key: GCGGGUUUAUUGUCUAGAATT against Mfn2
Result string: 0.669
